All values here come from ChEMBL document CHEMBL5154823.

assay.procedure: Cytotoxicity against HEK293 cells assessed as effect on cell viability at 10 to 25 ug/ml incubated for 24 hrs by microplate reader analysis relative to control
Format: toxicity, cell-based
recorded.conditions: human, at 10 to 25 µg/mL, dose 10-25 µg/ml, read-out: Activity
Where a SMILES comes first, the peptide text is derived from it. The star is where a group is joined. X1 = C[C@H](O)[C@H]1C(=O)N2C(C(=O)*)=C(S[C@@H]3CN[C@H](C(=O)N(C)C)C3)[C@@H](C)[C@H]12
Property: viability at 24 h; scope: individual compounds
The reply should be a number in %, with the unit left off.

N=C(N)NCCC[C@@H]1NC(=O)[C@H](CCCNC(=N)N)NC(=O)[C@H](CCCNC(=N)N)NC(=O)[C@H](CCCNC(=N)N)NC(=O)[C@H](Cc2c[nH]c3ccccc23)NC(=O)[C@H](Cc2c[nH]c3ccccc23)NC(=O)[C@H](Cc2c[nH]c3ccccc23)NC(=O)[C@H](Cc2c[nH]c3ccccc23)NC(=O)[C@H](CCCCN)NC(=O)[C@H](CCCNC(=N)N)NC1=O (cyclo(KWWWWRRRRR)) : 86

Record C[C@H](O)[C@H]1C(=O)N2C(C(=O)NCCCC[C@@H]3NC(=O)[C@H](CCCNC(=N)N)NC(=O)[C@H](CCCNC(=N)N)NC(=O)[C@H](CCCNC(=N)N)NC(=O)[C@H](CCCNC(=N)N)NC(=O)[C@H](CCCNC(=N)N)NC(=O)[C@H](Cc4c[nH]c5ccccc45)NC(=O)[C@H](Cc4c[nH]c5ccccc45)NC(=O)[C@H](Cc4c[nH]c5ccccc45)NC(=O)[C@H](Cc4c[nH]c5ccccc45)NC3=O)=C(S[C@@H]3CN[C@H](C(=O)N(C)C)C3)[C@@H](C)[C@H]12 (cyclo(K(X1)WWWWRRRRR)) . Reported viability at 24 h: 90
